Biological target: Cytochrome P450 2D6 (Homo sapiens, UniProt P10635)
Sequence (P10635 whole entry): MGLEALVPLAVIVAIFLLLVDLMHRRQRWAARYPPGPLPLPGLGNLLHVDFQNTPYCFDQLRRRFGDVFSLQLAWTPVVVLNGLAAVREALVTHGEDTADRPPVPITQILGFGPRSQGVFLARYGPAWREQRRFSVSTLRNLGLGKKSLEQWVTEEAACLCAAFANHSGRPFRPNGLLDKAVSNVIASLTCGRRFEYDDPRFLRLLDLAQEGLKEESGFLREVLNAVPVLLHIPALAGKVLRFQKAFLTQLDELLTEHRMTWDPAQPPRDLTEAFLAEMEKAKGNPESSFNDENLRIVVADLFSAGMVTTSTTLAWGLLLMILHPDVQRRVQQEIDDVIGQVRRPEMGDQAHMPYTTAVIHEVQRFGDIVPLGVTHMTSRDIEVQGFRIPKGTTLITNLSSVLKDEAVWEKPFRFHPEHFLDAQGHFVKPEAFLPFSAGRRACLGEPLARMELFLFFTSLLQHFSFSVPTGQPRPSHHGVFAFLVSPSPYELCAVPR
Experiment: Inhibition of CYP2D6 expressed in human hepatocytes
property-measured: IC50

## Input What value of measured IC50 is listed for "C[C@H](N)C(=O)NCc1cccc(-n2nc(C(F)(F)F)cc2-c2nnc(-c3cccc4ncsc34)o2)c1" ?
## Output > 100 µM

----------
Target: UniProt:Q86X55
Sequence (Q86X55 whole entry): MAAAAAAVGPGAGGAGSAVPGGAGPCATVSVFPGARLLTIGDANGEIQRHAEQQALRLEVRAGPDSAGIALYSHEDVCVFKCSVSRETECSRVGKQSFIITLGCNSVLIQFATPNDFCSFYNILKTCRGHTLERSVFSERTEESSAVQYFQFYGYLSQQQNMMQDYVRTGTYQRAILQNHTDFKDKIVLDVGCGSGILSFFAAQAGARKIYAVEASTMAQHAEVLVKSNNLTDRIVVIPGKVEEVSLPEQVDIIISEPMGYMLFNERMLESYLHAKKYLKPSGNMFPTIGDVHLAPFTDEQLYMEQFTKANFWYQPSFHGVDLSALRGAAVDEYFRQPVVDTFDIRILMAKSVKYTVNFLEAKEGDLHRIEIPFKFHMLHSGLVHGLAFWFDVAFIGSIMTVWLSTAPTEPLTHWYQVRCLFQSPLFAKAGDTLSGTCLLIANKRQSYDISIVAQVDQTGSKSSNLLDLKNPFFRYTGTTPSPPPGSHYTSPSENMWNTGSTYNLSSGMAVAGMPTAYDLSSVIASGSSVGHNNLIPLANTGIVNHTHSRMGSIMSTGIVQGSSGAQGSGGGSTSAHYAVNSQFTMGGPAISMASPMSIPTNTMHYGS
property-measured: pIC50
Hey, just a heads up that pIC50 is the negative log base 10 of the concentration in molar.

## Input What value of measured pIC50 is listed for "C[C@H](N)C(=O)NCc1cccc(-n2nc(C(F)(F)F)cc2-c2nnc(-c3cccc4ncsc34)o2)c1" ?
## Output 7.40
